# TESTED ON: MBP-FoxP3dN (Mus musculus, UniProt Q99JB6 188-423)
# Sequence: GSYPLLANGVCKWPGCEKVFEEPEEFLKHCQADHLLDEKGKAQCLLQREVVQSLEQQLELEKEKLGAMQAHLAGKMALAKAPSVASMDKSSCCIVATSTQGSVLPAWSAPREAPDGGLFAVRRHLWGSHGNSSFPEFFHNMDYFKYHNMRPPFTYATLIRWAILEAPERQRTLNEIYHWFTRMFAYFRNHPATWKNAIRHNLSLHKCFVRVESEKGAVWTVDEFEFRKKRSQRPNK
# METHOD: PD-seq (MBP pull-down with sequencing); 20 mM Tris-HCl pH 7.5, 100 mM NaCl, 1.5 mM MgCl2, 0.4 uM protein, 0.1 uM dsDNA library, 30 min, room temperature, amylose pull-down; high values mean tight binding
# TEST PARAMETERS: protein: recombinant; tags: His6-MBP; chain copies: 2; dsDNA, one strand shown
Over roughly 16,000 sequences, “rpm ratio (pull-down/input)” has its median near 0.5; the highest 2% begin near 5.5. The sample holds the highest values, similar sequences and a random draw of the others, so the mix is not that of the screen.
Measured binding signal, listed per entry for reference.

| INPUT SEQUENCE | binding signal |
| --- | --- |
| GATGATTGTTCTCCCAGCTGATGAATTCGTGCATTCGAGTAAACAAATTTTCCTAATCTTTCTGTTCAAGCGCCATCTAC | 6.29 RPM ratio (pull-down/input) |
| GATGATTGTTCTCCCAGCTGATGAATTGCATCAATCGAGTAAACAAATTTTCCTAATCTTTCTGTTCAAGCGCCATCTAC | 3.31 RPM ratio (pull-down/input) |
| GATGATTGTTCTCCCAGCTGATGAATTGCCATCATCGAGTAAACAAATTTTCCTAATCTTTCTGTTCAAGCGCCATCTAC | 1.56 RPM ratio (pull-down/input) |
| GATGATTGTTCTCCCAGCTGATGAATTCTTTGCATCGAGTAAACAAATTTTCCTAATCTTTCTGTTCAAGCGCCATCTAC | 0.99 RPM ratio (pull-down/input) |
| GATGATTGTTCTCCCAGCTGATGAATTTTTTGCATCGAGTAAACAAATTTTCCTAATCTTTCTGTTCAAGCGCCATCTAC | 1.37 RPM ratio (pull-down/input) |
| GATGATTGTTCTCCCAGCTGATGAATTTGTGCCTTCGAGTAAACAAATTTTCCTAATCTTTCTGTTCAAGCGCCATCTAC | 4.02 RPM ratio (pull-down/input) |
| GATGATTGTTCTCCCAGCTGATGAATTGTAGCGGTCGAGTAAACAAATTTTCCTAATCTTTCTGTTCAAGCGCCATCTAC | 0.618 RPM ratio (pull-down/input) |
